- system under test: HCV helicase (helicase domain of NS3 protein)
- Construct: The helicase domain of NS3 protein was expressed in a baculovirus system in HF insect cell line; fused on or other part: Histidine tag, inferred from the Talon cobalt column purification ('histidine repetitions')
- experiment description: Fluorometric (FRET) antihelicase activity assay
- Assay type: biochemical, hepatitis C virus (HCV)
- test context: concentration inhibiting 50% of helicase activity; 10 nM enzyme pre-incubated 15 min with derivative, unwinding at 30° C. for 60 min; read-out: IC50
Give pIC50 for every item shown.
One number for each entry, as −log10 of the molar value.

Take a look at these entries with their results.
Note down pIC50 recorded for COc1cccc2c1C(=O)c1c(O)c3c(c(O)c1C2=O)CC(O)(C(C)=O)CC3OC1CC(N=CN2CCOCC2)C(O)C(C)O1 (stereo not shown) [Derivative 71]
5.50

Note down pIC50 recorded for COc1cccc2c1C(=O)c1c(O)c3c(c(O)c1C2=O)CC(O)(C(C)=O)CC3OC1CC(N=C(C)N2CCCCC2)C(O)C(C)O1 (stereo not shown) [Derivative 22]
6.15

Note down pIC50 recorded for COc1cccc2c1C(=O)c1c(O)c3c(c(O)c1C2=O)CC(O)(C(=O)CO)CC3OC1CC(N=CN2CCOCC2)C(O)C(C)O1 (stereo not shown) [Derivative 107]
6.01

List pIC50 for every entry below, keeping the order given.
1. COc1cccc2c1C(=O)c1c(O)c3c(c(O)c1C2=O)CC(O)(C(C)=O)CC3OC1CC(N=CN2CCCCCC2)C(O)C(C)O1 (stereo not shown)
2. COc1cccc2c1C(=O)c1c(O)c3c(c(O)c1C2=O)CC(O)(C(C)=O)CC3OC1CC(N=C(C)N2CCc3ccccc32)C(O)C(C)O1 (stereo not shown)
3. COc1cccc2c1C(=O)c1c(O)c3c(c(O)c1C2=O)CC(O)(C(=O)CO)CC3OC1CC(N=C(C)N2CCOCC2)C(O)C(C)O1 (stereo not shown) [Derivative 54]
4. COc1cccc2c1C(=O)c1c(O)c3c(c(O)c1C2=O)CC(O)(C(=O)CO)CC3OC1CC(N=C(C)N2CCCCC2)C(O)C(C)O1 (stereo not shown) [Derivative 56]

1: 5.88; 2: 4.95; 3: 6.29; 4: 5.47

----------
- Tested on: subgenomic HCV genotype 1 (con 1) replicon
- experiment description: Antiviral activity, subgenomic HCV replicon luciferase test in Huh-7 cells
- Assay type: cell-based, hepatitis C virus
- test context: Hepatitis C virus, Huh-7, ribavirin, comparison drug
assay endpoint: EC50
Quick note: number first, unit second.

Note down EC50 recorded for NC(=O)c1ncn([C@@H]2O[C@H](CO)[C@@H](O)[C@H]2O)n1 [ribavirin, reference compound]
120 µM

----------
- system under test: HCV helicase (helicase domain of NS3 protein)
- Construct: The helicase domain of NS3 protein was expressed in a baculovirus system in HF insect cell line; fused on or other part: Histidine tag, inferred from the Talon cobalt column purification ('histidine repetitions')
- experiment description: Fluorometric (FRET) antihelicase activity assay
- Format: biochemical, hepatitis C virus (HCV)
- test context: concentration inhibiting 50% of helicase activity; 10 nM enzyme pre-incubated 15 min with derivative, unwinding at 30° C. for 60 min; read-out: IC50
Give log10 of IC50 for every item shown.
Note: values are log10 of IC50 expressed in nM.

List log10 of IC50 for every entry below, keeping the order given.
1. COc1cccc2c1C(=O)c1c(O)c3c(c(O)c1C2=O)CC(O)(C(=O)CO)CC3OC1CC(N=C(C)N2CCCC2)C(O)C(C)O1 (stereo not drawn) [Derivative 123]
2. CCN(CC)C(C)=NC1CC(OC2CC(O)(C(=O)CO)Cc3c(O)c4c(c(O)c32)C(=O)c2c(OC)cccc2C4=O)OC(C)C1O (stereo not drawn) [Derivative 135]
3. COc1cccc2c1C(=O)c1c(O)c3c(c(O)c1C2=O)CC(O)(C(C)=O)CC3OC1CC(N=C(C)N2CCN(C)CC2)C(O)C(C)O1 (stereo not drawn) [Derivative 95]
4. COc1cccc2c1C(=O)c1c(O)c3c(c(O)c1C2=O)CC(O)(C(=O)CO)CC3OC1CC(N=CN2CCCC2)C(O)C(C)O1 (stereo not drawn) [Derivative 35]
5. COc1cccc2c1C(=O)c1c(O)c3c(c(O)c1C2=O)CC(O)(C(C)=O)CC3OC1CC(N=C(C)N2CCCCC2)C(O)C(C)O1 (stereo not drawn) [Derivative 91]

[2.49, 3.09, 1.95, 2.74, 1.48]

Note down log10 of IC50 recorded for CCCCN(C=NC1CC(OC2CC(O)(C(C)=O)Cc3c(O)c4c(c(O)c32)C(=O)c2c(OC)cccc2C4=O)OC(C)C1O)CCCC (stereo not drawn) [Derivative 84]
3.31

Entry source: patent US20090298786A1
